- Tested on: L1210
- Protocol Text: Cytostatic activity against mouse L1210 cells after 2 days by coulter ZI particle counting analysis
- Format: functional, cell-based
- Measurement Parameters: L1210, 48 h
pIC50: −log10 of the molar value.
Measured Quantity: pIC50

[[record]]
molecule = "CCOP(=O)(OCC)C(O)Cn1cc(Cn2cnc3cc(C)c(C)cc32)nn1 (stereo unspecified)"
measured_quantity = "pIC50"
recorded_measurement = "< 3.70"

[[record]]
molecule = "CCOP(=O)(CCCn1cc(Cn2ccccc2=O)nn1)OCC"
measured_quantity = "pIC50"
recorded_measurement = "< 3.70"

[[record]]
molecule = "CCOP(=O)(CC(O)Cn1cc(Cn2cnc3cc(C)c(C)cc32)nn1)OCC (stereo unspecified)"
measured_quantity = "pIC50"
recorded_measurement = "< 3.70"

[[record]]
molecule = "CCOP(=O)(OCC)C(O)Cn1cc(Cn2c(=O)c3c(ncn3C)n(C)c2=O)nn1 (stereo unspecified)"
measured_quantity = "pIC50"
recorded_measurement = "< 3.70"

[[record]]
molecule = "CCOP(=O)(OCC)C(O)CCn1cc(Cn2cc(C(C)=O)c3ccccc32)nn1 (stereo unspecified)"
measured_quantity = "pIC50"
recorded_measurement = 3.91

[[record]]
molecule = "CCOP(=O)(OCC)C(O)Cn1cc(Cn2cc(C(C)=O)c3ccccc32)nn1 (stereo unspecified)"
measured_quantity = "pIC50"
recorded_measurement = "< 3.70"

[[record]]
molecule = "CCOP(=O)(OCC)C(O)CCn1cc(Cn2ccc(NC(C)=O)nc2=O)nn1 (stereo unspecified)"
measured_quantity = "pIC50"
recorded_measurement = "< 3.70"

[[record]]
molecule = "CCOP(=O)(OCC)C(O)Cn1cc(Cn2c(=O)n(C(=O)c3ccccc3)c(=O)c3ccccc32)nn1 (stereo unspecified)"
measured_quantity = "pIC50"
recorded_measurement = "< 3.70"

[[record]]
molecule = "CCOP(=O)(CCCn1cc(Cn2ncc(=O)[nH]c2=O)nn1)OCC"
measured_quantity = "pIC50"
recorded_measurement = "< 3.70"

[[record]]
molecule = "CCOP(=O)(Cn1cc(Cn2cc(C(C)=O)c3ccccc32)nn1)OCC"
measured_quantity = "pIC50"
recorded_measurement = 4.14

[[record]]
molecule = "CCOP(=O)(OCC)C(O)CCn1cc(Cn2c(=O)c3c(ncn3C)n(C)c2=O)nn1 (stereo unspecified)"
measured_quantity = "pIC50"
recorded_measurement = "< 3.70"

[[record]]
molecule = "CCOP(=O)(CC(O)Cn1cc(Cn2cc(C(C)=O)c3ccccc32)nn1)OCC (stereo unspecified)"
measured_quantity = "pIC50"
recorded_measurement = "< 3.70"

[[record]]
molecule = "CCOP(=O)(CCCn1cc(Cn2cc(C(C)=O)c3ccccc32)nn1)OCC"
measured_quantity = "pIC50"
recorded_measurement = 3.79

[[record]]
molecule = "CCOP(=O)(OCC)C(O)CCn1cc(Cn2ccccc2=O)nn1 (stereo unspecified)"
measured_quantity = "pIC50"
recorded_measurement = "< 3.70"

[[record]]
molecule = "CCOP(=O)(CC(O)Cn1cc(Cn2cnc3c2c(=O)n(C)c(=O)n3C)nn1)OCC (stereo unspecified)"
measured_quantity = "pIC50"
recorded_measurement = "< 3.70"

[[record]]
molecule = "O=c1ccn(Cc2cn(CCCCP(=O)(O)O)nn2)c(=O)[nH]1"
measured_quantity = "pIC50"
recorded_measurement = "< 3.70"

[[record]]
molecule = "CCOP(=O)(CCCCn1cc(Cn2cnc3c(N)ncnc32)nn1)OCC"
measured_quantity = "pIC50"
recorded_measurement = "< 3.70"

[[record]]
molecule = "CCOP(=O)(CC(O)Cn1cc(Cn2c(Cl)nc3c2c(=O)n(C)c(=O)n3C)nn1)OCC (stereo unspecified)"
measured_quantity = "pIC50"
recorded_measurement = "< 3.70"

[[record]]
molecule = "CCOP(=O)(Cn1cc(Cn2ncc(=O)[nH]c2=O)nn1)OCC"
measured_quantity = "pIC50"
recorded_measurement = "< 3.70"

[[record]]
molecule = "CCOP(=O)(CCn1cc(Cn2cnc3c2c(=O)n(C)c(=O)n3C)nn1)OCC"
measured_quantity = "pIC50"
recorded_measurement = "< 3.70"

[[record]]
molecule = "CCOP(=O)(CCCCn1cc(Cn2ncc(=O)[nH]c2=O)nn1)OCC"
measured_quantity = "pIC50"
recorded_measurement = "< 3.70"

